Test system: CCRIS mutagenicity, Ames/micronucleus/aberration tests
Method: CCRIS mutagenicity studies
Condition description: Test System: AMES SALMONELLA TYPHIMURIUM; Strain/Indicator: TA100; Metabolic Activation: RAT, LIVER, S-9, AROCLOR 1254; Method: STANDARD PLATE
Calls of active or inactive are those of the source. No rule for the calls is given here.
Readout type: mutagenic call

c1ccc2c(c1)ccc1cccnc12    inactive; negative
ClC(Br)Br    active; positive
N[C@@H](Cc1ccc(N(CCCl)CCCl)cc1)C(=O)O    active; positive
FC(F)(F)c1cccc(Cl)c1    inactive; negative
Nc1cccc2cc3ccccc3cc12    active; positive

Here's the next entry for you.
Record CN(C)S(=O)(=O)CCNC(=O)N(CCCl)N=O , field mutagenic call: active; positive
